assay_notes: In vivo PK study, intratracheal (IT) and intravenous (IV)
details: male, CD1, mouse, epithelial lining fluid, inhaled or intranasal, […], ELF Tmax, […] IT
attribute_measured: Tmax (min)
Number only, in min; omit the unit.

Recorded result, NC[C@H]1O[C@H](O[C@H]2[C@H](O)[C@@H](O[C@H]3O[C@H](CO)[C@@H](O)[C@H](N)[C@H]3O)[C@H](N)C[C@@H]2N)[C@H](N)C[C@@H]1O , Tmax: 40.2

----------
measured_on: HTR2B Human 5-Hydroxytryptamine GPCR (Homo sapiens)
Construct: 86-0030P-2091AN
Sequence (P41595 whole entry): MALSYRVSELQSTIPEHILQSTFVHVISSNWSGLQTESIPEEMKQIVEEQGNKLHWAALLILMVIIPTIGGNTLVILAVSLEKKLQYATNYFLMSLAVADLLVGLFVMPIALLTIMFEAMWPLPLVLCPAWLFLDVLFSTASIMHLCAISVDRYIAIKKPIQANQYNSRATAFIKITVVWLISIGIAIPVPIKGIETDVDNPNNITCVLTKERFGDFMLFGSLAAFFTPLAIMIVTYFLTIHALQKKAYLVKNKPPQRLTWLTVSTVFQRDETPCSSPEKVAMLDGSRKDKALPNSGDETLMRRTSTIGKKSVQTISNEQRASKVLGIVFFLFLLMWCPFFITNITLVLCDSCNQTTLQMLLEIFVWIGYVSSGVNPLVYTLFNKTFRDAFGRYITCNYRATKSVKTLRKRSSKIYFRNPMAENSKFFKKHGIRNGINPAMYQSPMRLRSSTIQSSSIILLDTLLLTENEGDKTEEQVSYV
assay_notes: HTR2B GPCR calcium assay, 86-0030P-2091AN
Format: cell-based
attribute_measured: IC50

Recorded result, CC(C)Oc1ccc(-c2ncc(CNc3ccnc(C(F)(F)F)c3)cn2)cc1Cl , IC50: > 10 µM

This collection of values is drawn from paper PMC9929129.
